- Experimental conditions: in ethanol, 283.15 K
Endpoint label: solubility (mole fraction)

Documented solubility (mole fraction) of O=C(O)Cc1ccccc1[N+](=O)[O-] : 0.0273

* * *

- Experimental conditions: in methanol, 328.15 K
Endpoint label: solubility (mole fraction)

Documented solubility (mole fraction) of O=C(O)Cc1ccccc1[N+](=O)[O-] : 0.134

* * *

- Experimental conditions: in n-butanol, 318.15 K
Endpoint label: solubility (mole fraction)
Returns: the value as a bare number; no unit string appended.

Documented solubility (mole fraction) of O=C(O)Cc1ccccc1[N+](=O)[O-] : 0.0533

Values compiled from BigSolDB 2.1.
